Target: T1, human CD47 expressed on cells (CD47 expressing CHO cells, Jurkat, HL60, DLD1, Raji) (human, UniProt Q08722 19-292)
T1 construct: also called CHO-CD47; IAP
Experiment: EC50 (nM) as grade, flow cytometry, Fab on HL60 cells; legend +++: <1 nM
pEC50: −log10 of the molar value.
QUANTITY: pEC50

Query: Entry ABU16 (Fab) (Fab, V domains shown, Phage-derived Fab: murine VL and VH fused to human CL and CH1) VH: RVQLQQSGAELVRPGTSVKVSCKASAYAFTNYLIEWVKKRPGQGLEWIGVINPGSGGTNYNEKFKGKATLTADKSSSTAYMQLSSLTSEDSAVYFCARGDGYGSLFAYWGQGTLVTVSA VL: RHCFNQSPAIMSASPGEKVTMTCSASSSVSYMHWYQQKSGTSPKRWIYDTSNLASGVPVRFSGSGSGTSYSLTISRMEAEDAATYYCQQWSNYPFTFGSGTKLELK : reported pEC50 = ?
Response: > 9.00
